tested on: HT‐29; experiment: Intracellular ROS assay; format: cell-based; conditions: Homo sapiens, HT-29, read-out: Intracellular ROS, percentage compared to the untreated control cells (ROS/SRB)

[
  {
    "Molecule": "COc1cc(/C=C/c2cc(/C=C/c3ccncc3)[nH]n2)ccc1O [4 b]",
    "Target Under Test": "HT‐29",
    "activity at 1 µM [%]": 111
  },
  {
    "Molecule": "COc1cc(/C=C/C(=O)/C=C(O)/C=C/c2cccnc2)ccc1O [3 a]",
    "Target Under Test": "HT‐29",
    "activity at 1 µM [%]": 83.2
  },
  {
    "Molecule": "O=C(/C=C(O)/C=C/c1ccc[nH]1)/C=C/c1c[nH]c2ccccc12 [3 l]",
    "Target Under Test": "HT‐29",
    "activity at 1 µM [%]": 152
  },
  {
    "Molecule": "O=C(/C=C(O)/C=C/c1ccc2ccccc2n1)/C=C/c1c[nH]c2ccccc12 [3 k]",
    "Target Under Test": "HT‐29",
    "activity at 1 µM [%]": 112
  },
  {
    "Molecule": "COc1cc(/C=C/C(=O)CC(=O)/C=C/c2ccc(O)c(OC)c2)ccc1O [Cur, curcumin, reference compound]",
    "Target Under Test": "HT‐29",
    "activity at 1 µM [%]": 106
  },
  {
    "Molecule": "COc1cc(/C=C/C(=O)/C=C(O)/C=C/c2ccnc3ccccc23)ccc1O [3 d]",
    "Target Under Test": "HT‐29",
    "activity at 1 µM [%]": 71.3
  },
  {
    "Molecule": "COc1cc(/C=C/C(=O)/C=C(O)/C=C/c2ccccn2)ccc1O [3 b]",
    "Target Under Test": "HT‐29",
    "activity at 1 µM [%]": 80.8
  },
  {
    "Molecule": "O=C(/C=C(O)/C=C/c1cccs1)/C=C/c1c[nH]c2ccccc12 [3 m]",
    "Target Under Test": "HT‐29",
    "activity at 1 µM [%]": 247
  },
  {
    "Molecule": "COc1cc(/C=C/C(=O)/C=C(O)/C=C/c2c[nH]c3ccccc23)ccc1O [3 g]",
    "Target Under Test": "HT‐29",
    "activity at 1 µM [%]": 85.7
  },
  {
    "Molecule": "COc1cc(/C=C/c2cc(/C=C/c3cccnc3)[nH]n2)ccc1O [4 a]",
    "Target Under Test": "HT‐29",
    "activity at 1 µM [%]": 61.3
  },
  {
    "Molecule": "CC(=O)N[C@@H](CS)C(=O)O [NAC, N‐acetyl‐L‐cysteine, reference compound]",
    "Target Under Test": "HT‐29",
    "activity at 1 µM [%]": 82.7
  },
  {
    "Molecule": "O=C(/C=C(O)/C=C/c1ccccn1)/C=C/c1c[nH]c2ccccc12 [3 j]",
    "Target Under Test": "HT‐29",
    "activity at 1 µM [%]": 114
  },
  {
    "Molecule": "O=C(/C=C(O)/C=C/c1ccncc1)/C=C/c1c[nH]c2ccccc12 [3 i]",
    "Target Under Test": "HT‐29",
    "activity at 1 µM [%]": 73.3
  },
  {
    "Molecule": "COc1cccc2c1C(=O)c1c(O)c3c(c(O)c1C2=O)C[C@@](O)(C(=O)CO)C[C@@H]3O[C@H]1C[C@H](N)[C@H](O)[C@H](C)O1 [Dox, doxorubicin, reference compound]",
    "Target Under Test": "HT‐29",
    "activity at 1 µM [%]": 116
  },
  {
    "Molecule": "COc1cc(/C=C/C(=O)/C=C(O)/C=C/c2ccncc2)ccc1O [3 c]",
    "Target Under Test": "HT‐29",
    "activity at 1 µM [%]": 93.4
  },
  {
    "Molecule": "COc1cc(/C=C/C(=O)/C=C(O)/C=C/c2cccc3cnccc23)ccc1O [3 e]",
    "Target Under Test": "HT‐29",
    "activity at 1 µM [%]": 80.6
  },
  {
    "Molecule": "COc1cc(/C=C/c2cc(/C=C/c3cccc4cnccc34)[nH]n2)ccc1O [4 c]",
    "Target Under Test": "HT‐29",
    "activity at 1 µM [%]": 94.4
  },
  {
    "Molecule": "O=C(/C=C(O)/C=C/c1cccnc1)/C=C/c1c[nH]c2ccccc12 [3 h]",
    "Target Under Test": "HT‐29",
    "activity at 1 µM [%]": 82.3
  },
  {
    "Molecule": "C(=C\\c1c[nH]c2ccccc12)/c1cc(/C=C/c2cccs2)[nH]n1 [4 d]",
    "Target Under Test": "HT‐29",
    "activity at 1 µM [%]": 463
  },
  {
    "Molecule": "COc1cc(/C=C/C(=O)/C=C(O)/C=C/c2ccc[nH]2)ccc1O [3 f]",
    "Target Under Test": "HT‐29",
    "activity at 1 µM [%]": 117
  }
]
